Where do the numbers come from? From the supplement of paper PMC12042874.

Experiment: amyloid nucleation score (Sup35N fusion, yeast selection) (log enrichment); library NNK3; higher = more nucleation; inactive = no reads after selection;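 also: zero at mode of non-aggregating sequences after 7 days selection at 30°C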

substance: TRWRSLSEGPSVGLEITPRF
amyloid nucleation score: inactive
--
substance: TTTFKLGISKSLDVSTRLRG
amyloid nucleation score: 0.31
--
substance: TDHNDLMKLFATRCSPNPCL
amyloid nucleation score: inactive
--
substance: ELVGQF
amyloid nucleation score: inactive
--
substance: KVGFHHDTVLAGSNQRVLFF
amyloid nucleation score: -0.354
--
substance: CFPIPVWRGDLNGAPRYAQM
amyloid nucleation score: inactive
--
substance: ALTAYLVNVWSKYTGMLFSC
amyloid nucleation score: inactive
--
substance: AYLSSTSANF
amyloid nucleation score: inactive
--
substance: LDFWRESVGAKE
amyloid nucleation score: inactive
--
substance: TINRLLICI
amyloid nucleation score: -0.14
--
substance: NGFMDNCAVSCRTIIVVSYR
amyloid nucleation score: 2.59
--
substance: YKFEHVIFWNSFLNIKVEFS
amyloid nucleation score: 1.56
--
substance: AAAMVKAMIDVITGKIPVAE
amyloid nucleation score: inactive
--
substance: RFQFIEFSSTVSSGGWTFFI
amyloid nucleation score: -0.165
--
substance: SFPWFDTYSLDVSWHISWRS
amyloid nucleation score: inactive
--
substance: CDGPMSYMGLGTAGKR
amyloid nucleation score: inactive
--
substance: SFLPTV
amyloid nucleation score: 0.93
--
substance: YAALWITYCLSSTTSRDDLD
amyloid nucleation score: inactive
--
substance: QHYLVYY
amyloid nucleation score: inactive
--
substance: FLYWVGSFEAEPV
amyloid nucleation score: inactive
--
substance: ALTWMRMYALCNIEVNHYST
amyloid nucleation score: 2.07
--
substance: FRVKFIMCRHLSPNV
amyloid nucleation score: 0.682
--
substance: FFLYSNIFQLS
amyloid nucleation score: 2.32
--
substance: FFYSVLCLLRAVLVDSNLGW
amyloid nucleation score: inactive
--
substance: ATQLCCIVCRGLGPGMGEES
amyloid nucleation score: inactive
--
substance: RYMHGYCILET
amyloid nucleation score: inactive
--
substance: YNSSTTVIDFTF
amyloid nucleation score: inactive
--
substance: GWSLGARSNYGLSTGQRGCA
amyloid nucleation score: inactive
--
substance: DLWHPMSY
amyloid nucleation score: -0.466
--
substance: NLWYLVMLISDFCEPRKEWY
amyloid nucleation score: inactive
--
substance: CEVGQCQGYVELLSYIHYNS
amyloid nucleation score: inactive
--
substance: PLWTPDGPLIGVVFVLSNNV
amyloid nucleation score: 1.03
